STUDY_TARGET: the molecule itself
ASSAY_NOTES: AUC
QUANTITY_NAME: Kd (nM)
Numeric only. Scale: nM

*Q* Query Kd for HP1a-CSD (residues 131-206), wild type (domain or fragment, D. melanogaster, UniProt P05205 131-206, looked up) EQDTIPVSGSTGFDRGLEAEKILGASDNNGRLTFLIQFKGVDQAEMVPSSVANEKIPRMVIHFYEERLSWYSDNED
*A* 1600

FYI, the data here is from paper PMC3154745.
